system: U-251; assay: NCI tumour cell line growth inhibition, 48 h
Calls of active or inactive are those of the source. Cut-off read from the data, not from the text of the source: active = GI50 up to about 1.1 µM and inactive = higher.
assayEndpoint: GI50

# molecule, observedValue
rows = [
    ("O=c1[nH]c(=O)n([C@@H]2C[C@H](CO)[C@H](O)C2)cc1/C=C/Br", "> 100 µM (inactive)"),
]

// query Fill blank: measured GI50 of the molecule CN(C)c1nc2n(CCO)ccnc-2c(=O)n1 is ____.
// result > 100 µM (inactive)

// query Same question, COc1ccc(C(=O)Nc2ccc(S(=O)(=O)NCC(=O)O)cc2)cc1 this time
// result > 100 µM (inactive)

// query Same question, CCOC(=O)N/N=C(\CC)NO this time
// result > 100 µM (inactive)

// query Same question, CCOC(=O)/C(C#N)=C1/C(O)=C(C(=O)OC)C(C(=O)OC)=C1C(=O)OC.c1ccncc1 this time
// result > 100 µM (inactive)

Where do the numbers come from? From ChEMBL document CHEMBL1201862.
